system: HT-29; test: NCI tumour cell line growth inhibition, 48 h
Activity calls are given as the source filed them. No stated cut-off is given here; in the data, active = GI50 up to about 1.1 µM and inactive = higher.
Pick from 1 = active, -1 = inactive when you respond.

MOLECULE: C=C[C@]1(O[Si](C)(C)C)C[C@@]2(C(=O)OCC)C(O)C(=O)N3CCc4cc(OC)c(OC)cc4[C@]312 (stereo partly specified)
SYSTEM: HT-29
DISCRETE_LABEL: -1
//
MOLECULE: CCNc1cc2c3c(c1)CCN3CCC2
SYSTEM: HT-29
DISCRETE_LABEL: -1

Outcome logged for COc1ccc(/C=C(\NC(=O)c2ccccc2)C(=O)NN(C)c2ccnc3cc(Cl)ccc23)cc1OC in this assay:
-1

Outcome logged for COc1ccccc1C1C(C(=O)Nc2ccccc2)=C(C)NC(C)=C1C(=O)Nc1ccccc1 in this assay:
-1

====

test system: SK-MEL-2; experiment: NCI tumour cell line growth inhibition, 48 h
Activity calls are given as the source filed them. Rule as the data show it: active = GI50 up to about 1.1 µM and inactive = higher.
Measured GI50, listed per entry.

COMPOUND: CCCCCCCCC#CCCCCCCC(F)C(=O)O (stereo not drawn)
SYSTEM: SK-MEL-2
GI50: > 100 µM (inactive)

Look up GI50 for this compound: COc1ccc2oc(=N)c(C(=O)Nc3ccccc3)cc2c1
17.2 µM (inactive)

Look up GI50 for this compound: COc1ccc(C2C3CCc4ccccc4C3=NN2S(=O)(=O)c2ccc(/C=C/C(=O)O)cc2)cc1 (stereo not drawn)
2.71 µM (inactive)

Look up GI50 for this compound: Cc1c(C)c2c(c(N)c1C#N)C(=O)N(CCc1ccccc1)C2=O
> 100 µM (inactive)

====

Measured GI50, listed per entry.
system: MDA-MB-231; test: NCI tumour cell line growth inhibition, 48 h
Activity calls are given as the source filed them. Cut-off read from the data, not from the text of the source: active = GI50 up to about 1.1 µM and inactive = higher.

Examples with their reported GI50 follow.
SAMPLE_SMILES: N#Cc1c(-c2ccc(Cl)cc2)cc(-c2ccc(Nc3ccnc4cc(C(F)(F)F)ccc34)cc2)nc1N
SYSTEM: MDA-MB-231
GI50: 28.7 µM (inactive)
//
SAMPLE_SMILES: O=C(O)c1ccccc1Sc1ccc(C=C2NC(=S)N(c3ccccc3)C2=O)s1
SYSTEM: MDA-MB-231
GI50: > 100 µM (inactive)
//
SAMPLE_SMILES: OCCCCCNc1cc(O)nc(O)n1
SYSTEM: MDA-MB-231
GI50: > 100 µM (inactive)

Look up GI50 for this compound: Cc1ccc(/N=N/C(=N/NC(=O)c2cc(Cl)ccc2C(=O)c2ccccc2)c2ccc(N(CCC#N)CCC#N)cc2C)cc1
4.06 µM (inactive)

Look up GI50 for this compound: Cc1ccc(S(=O)(=O)NC(=O)NCC(=O)O)cc1
> 100 µM (inactive)

====

Measured GI50, listed per entry.
system: OVCAR-8; test: NCI tumour cell line growth inhibition, 48 h
The source made the active and inactive calls. Rule as the data show it: active = GI50 up to about 1.1 µM and inactive = higher.

COMPOUND: CCOC(=O)Nn1c(C)nnc1-c1ccccc1
GI50: > 100 µM (inactive)

Kindly consider the entry below.
Look up GI50 for this compound: S=C(NCCc1ccccn1)N/N=C/c1ccccn1
0.0489 µM (active)

====

tested on: SF-539; assay: NCI tumour cell line growth inhibition, 48 h
The source made the active and inactive calls. No stated cut-off is given here; in the data, active = GI50 up to about 1.1 µM and inactive = higher.
Measured GI50, listed per entry.

Examples with their reported GI50 follow.
MOLECULE: O=[N+]([O-])c1ccc(C2N3CCCCC3[C@H]3CCCCN23)cc1 (some centres not stated)
SYSTEM: SF-539
GI50: > 100 µM (inactive)
--
MOLECULE: O=C(O)CNc1ccc(Cl)c(Cl)c1
SYSTEM: SF-539
GI50: 33.5 µM (inactive)
--
MOLECULE: CC(/C=C/C(=O)c1sc(-n2nc(-c3ccccc3)cc2-c2ccccc2)nc1C)=C\c1ccccc1
SYSTEM: SF-539
GI50: 52.1 µM (inactive)
--
MOLECULE: O=C(N/N=C\c1cccs1)c1ccncc1
SYSTEM: SF-539
GI50: > 100 µM (inactive)
--
MOLECULE: COc1ccc(C2OC(N)=C(C#N)C3=C2CCCC3C)cc1OC (configuration not stated)
SYSTEM: SF-539
GI50: > 100 µM (inactive)
--
MOLECULE: COc1ccc(-c2c(C(C)=O)c(-c3ccccc3)n(C3OC(COC(C)=O)C(OC(C)=O)C(OC(C)=O)C3OC(C)=O)c(=S)c2C#N)cc1 (configuration not stated)
SYSTEM: SF-539
GI50: > 100 µM (inactive)
--
MOLECULE: CCC1C(=O)OCc2c1cc1n(c2=O)Cc2ccccc2-1 (configuration not stated)
SYSTEM: SF-539
GI50: > 100 µM (inactive)
--
MOLECULE: COc1ccc(C2C3CCc4ccccc4C3=NN2S(=O)(=O)c2ccc(/C=C/C(=O)O)cc2)cc1 (configuration not stated)
SYSTEM: SF-539
GI50: 2.3 µM (inactive)

Look up GI50 for this molecule: O=C(NC(=O)c1cc2cc(Br)cc(Br)c2oc1=O)Oc1ccccc1
87.3 µM (inactive)

Look up GI50 for this molecule: C#CC1NC(=O)C1N(CC)CC (configuration not stated)
> 100 µM (inactive)

Look up GI50 for this molecule: COC1(OC)CC(CO)(CNc2nc(N)nc(Cl)c2C=O)C1
> 100 µM (inactive)

====

test system: Malme-3M; experiment: NCI tumour cell line growth inhibition, 48 h
Calls of active or inactive are those of the source. Cut-off read from the data, not from the text of the source: active = GI50 up to about 1.1 µM and inactive = higher.
MEASURED_QUANTITY: GI50

Examples with their reported GI50 follow.
COMPOUND: C=C[C@]1(O[Si](C)(C)C)C[C@@]2(C(=O)OCC)C(O)C(=O)N3CCc4cc(OC)c(OC)cc4[C@]312 (some centres undefined)
GI50: > 100 µM (inactive)
//
COMPOUND: CC(=O)NC1C(O)CC(OCCCSCCN)(C(=O)O)OC1C(O)C(O)CO (centres undefined)
GI50: > 100 µM (inactive)
//
COMPOUND: CC(=O)Oc1cc(OC(C)=O)c2c(c1C)CC[C@@H]1[C@@H]2CC[C@]2(C)[C@@H](OC(C)=O)CC[C@@H]12
GI50: 15.6 µM (inactive)
//
COMPOUND: Clc1ccc(CCN[C@H]2CCCC[C@H]2N2CCCC2)cc1Cl
GI50: 15.9 µM (inactive)
//
COMPOUND: C=CC(Cl)(CBr)CCC(Br)C(C)(C)Cl (centres undefined)
GI50: 18.7 µM (inactive)

Look up GI50 for this compound: COC(=O)c1ccc(OCc2ccc3nc(OC)c(OC)nc3c2)cc1
> 100 µM (inactive)

Look up GI50 for this compound: O[C@@H]1[C@H](OC2c3ccccc3-c3ccccc32)[C@H](OCc2ccccc2)[C@@H]2OC[C@H]1O2
> 100 µM (inactive)

Look up GI50 for this compound: CS(=O)(=O)N(N(CCCl)S(=O)(=O)c1ccccc1)S(C)(=O)=O
> 100 µM (inactive)

Look up GI50 for this compound: COC(=O)C(=O)C(/C(=N/N)C(=O)Nc1ccccc1C(N)=O)c1nc2ccc([N+](=O)[O-])cc2nc1O (centres undefined)
> 100 µM (inactive)

====

test system: PC-3; assay: NCI tumour cell line growth inhibition, 48 h
The source made the active and inactive calls. Cut-off read from the data, not from the text of the source: active = GI50 up to about 1.1 µM and inactive = higher. Peptide text beside a SMILES is read from it. * marks the point of attachment. X27 = Clc1c(Cl)c(Cl)c(O*)c(Cl)c1Cl; Boc = CC(C)(C)OC(=O)*; OBn = c1ccc(CO*)cc1; Bn = c1ccc(C*)cc1
Measured GI50, listed per entry.

COMPOUND: CC(C)OC(=O)Nc1cccc(Cl)c1
RESULT: 94.4 µM (inactive)

COMPOUND: COC(=O)c1nc(-c2nc(CCNC(=O)OC(C)(C)C)sc2Cl)sc1Cl
RESULT: 28.1 µM (inactive)

COMPOUND: CCCCCCCCC#CCCCCCCC(F)C(=O)O (stereo not drawn)
RESULT: > 100 µM (inactive)

COMPOUND: CC(C)C1=C(Cc2ccccc2)C(=O)O/C1=C\c1cc(Cl)c(O)c(Cl)c1
RESULT: 16.9 µM (inactive)

COMPOUND: CC(C)CC(NC(=O)C(CCC(=O)OCc1ccccc1)NC(=O)OC(C)(C)C)C(=O)NC(COCc1ccccc1)C(=O)NC(Cc1ccccc1)C(=O)Oc1c(Cl)c(Cl)c(Cl)c(Cl)c1Cl (stereo not drawn) (Boc-E(OBn)LS(Bn)F-X27; configuration not given here)
RESULT: > 100 µM (inactive)

Look up GI50 for this compound: Cn1c(-c2cccs2)cc(-c2cccs2)c1-c1cccs1
> 100 µM (inactive)

Look up GI50 for this compound: COc1cc(N(Cc2ccc3oc(=O)c(-c4ccccc4)nc3c2)Cc2ccc3oc(=O)c(-c4ccccc4)nc3c2)cc(OC)c1OC
> 10 µM (inactive)

Look up GI50 for this compound: O=C1c2c(Br)sc(Br)c2[C@H]2OC(=S)N[C@@H]12
4.07 µM (inactive)

Look up GI50 for this compound: COC1CCC(O)C(/C=C/[N+](=O)[O-])C1 (stereo not drawn)
2.06 µM (inactive)
